- Test system: Saccharomyces cerevisiae
- Assay name: protein stability index of tFT-peptide fusion (C-terminal peptide) (PSI (0-1 scale)); higher = more stable (slower turnover)
- Measurement context: genetic background: wild type; temperature: 30 C
Measurement type: protein stability index
Answer as a number with no unit attached.

IDYETIQKYKVE    0.633
PARPEPPRANWR    0.647
LLKLSVPPSLYV    0.572
LGCSMSPYFVRF    0.802
LFPCPSMTLPRL    0.706

Recorded protein stability index for TFPRRCILNIQI with Saccharomyces cerevisiae, please?
0.635

Recall the recorded protein stability index for GWHVGCGCTVFR with Saccharomyces cerevisiae and state it.
0.671

Give recorded protein stability index with Saccharomyces cerevisiae for the following sequence: IACLDVLRRALF
0.627

Form field: protein stability index recorded for PRPGGHLFLVFS with Saccharomyces cerevisiae (enter value)
0.679

Provide the documented protein stability index with Saccharomyces cerevisiae as the system for PMADACPAPPPQ
0.643

Query the reported protein stability index for Saccharomyces cerevisiae; item: SGRIHLLHSPWV
0.712

Test system Saccharomyces cerevisiae; read-out protein stability index; what value for KHSTTSRCVWYT ?
0.627

Query for Saccharomyces cerevisiae: what protein stability index does the record show for PNFPEPSLTDAL ?
0.716

###

- Tested on: Saccharomyces cerevisiae
- Assay name: protein stability index of tFT-peptide fusion (C-terminal peptide) (PSI (0-1 scale)); higher = more stable (slower turnover)
- Measurement context: genetic background: wild type; temperature: 30 C
label 1 means recorded protein stability index is 0.7 or above; label 0 means it is below 0.7.

Recorded results for 8 sequences are shown here.
SPPSPGLDPVCP    label 0
VRVWLLACASKG    label 0
SLLILMYHIAPF    label 0
REWRLVTCSDCL    label 0
HSSSGTHRIKKT    label 0
GRQKIESSEAQT    label 0
LGPRMYKRRDLR    label 1
FHLVIYWCVRGP    label 0

Threshold query (protein stability index >= 0.7) on PPPFPSPLPPPP
label 0

Is protein stability index at least 0.7? Consider RCSCNKNGFSSN
label 0

Check the entry FHTLCLGPCTVI : does protein stability index equal or exceed 0.7?
label 0

Exam item: decide whether the reported protein stability index for CFLPACPSPGDS is at least 0.7.
label 1

Can KKRDKKKLRRVE be said to have protein stability index at or above 0.7?
label 0

###

Recorded protein stability index for the following sequences
- System: Saccharomyces cerevisiae
- Assay name: protein stability index of tFT-peptide fusion (C-terminal peptide) (PSI (0-1 scale)); higher = more stable (slower turnover)
- Measurement context: genetic background: das1 deletion; temperature: 30 C
Please give only the number in your answer, with no unit.

LLCRVSRTRILC    0.426

Data request, read-out protein stability index, for VFCLPISAPPLH
0.642

Sample LIFLSISFISSL — what was its protein stability index?
0.168

Look up protein stability index for this sequence: AYFPSQRVHHLM
0.661

###

Reported protein stability index values for the following sequences.
- System: Saccharomyces cerevisiae
- Assay name: protein stability index of tFT-peptide fusion (C-terminal peptide) (PSI (0-1 scale)); higher = more stable (slower turnover)
- Measurement context: genetic background: das1 deletion; temperature: 30 C
In your answer, state the number alone without any accompanying words.

KMFAKYRENSRI [DYN3 C-terminal 12 aa]    0.692
ASIGSDIVNNIF [PIN3 C-terminal 12 aa]    0.712
IARLEKLLSGGV [LEA1 C-terminal 12 aa]    0.692
EGVRNRRKALKK [ARO3 C-terminal 12 aa]    0.684
NAIKNWTGVNVK [MIC26 C-terminal 12 aa]    0.7

Any idea what its protein stability index is? The sequence is DTSPAQEQSPAN [ARG80 C-terminal 12 aa]
0.695
